test: chemical genetic growth profiling, strain panel (AID 1159580);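 further: tested at 20 µM; growth read once vehicle control cultures reached saturation at 30 °C; lower values mean less growth of the strain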; conditions: S. cerevisiae deletion strains, growth OD, locus YGL078C, strain dbp3
Among all 5,500 compounds or so, about 2,000 (36%) were called active. Inconclusive results (about 18%) are left out. No stated cut-off is given here; in the data, active means normalized growth mostly below about 0.91 (no sharp cut-off); inconclusive means no clear call, values can overlap the other calls; inactive means mostly above about 0.92. The list shows a part of the results.
Form entry, call: pick from active, inactive

[in] Any idea what this test logged for CCOC(=O)C1=C(C)NC(C)=C(C(=O)OC)C1c1cccc([N+](=O)[O-])c1 (stereo not drawn) ?
[out] inactive

[in] Any idea what this test logged for COc1cc(O)c(C(C)=O)c(OC)c1 ?
[out] inactive

[in] Any idea what this test logged for C[N+]1(C)C2CC[C@H]1CC(OC(=O)C(O)c1ccccc1)C2 (stereo partly drawn) ?
[out] inactive

[in] Any idea what this test logged for Nc1ncnc2c1ncn2[C@@H]1O[C@H](CO)[C@@H](O)[C@@H]1O ?
[out] inactive

[in] Any idea what this test logged for O=C1OC(=O)C2C3CCC(O3)C12 (stereo not drawn) ?
[out] inactive

[in] Any idea what this test logged for COc1ccc2ccc(=O)oc2c1CC=C(C)C ?
[out] active

[in] Any idea what this test logged for C[C@H]1C(=O)O[C@@H]2CCN3CC=C(COC(=O)[C@](C)(O)[C@]1(C)O)[C@H]23 ?
[out] inactive

[in] Any idea what this test logged for CCCCC/C=C\C/C=C\C/C=C\C/C=C\CCCC(=O)O ?
[out] inactive

[in] Any idea what this test logged for O=c1cc(-c2ccc(O)cc2)oc2cc(O[C@@H]3O[C@H](CO)[C@@H](O)[C@H](O)[C@H]3O[C@@H]3OC[C@](O)(CO)[C@H]3O)cc(O)c12 ?
[out] inactive

[in] Any idea what this test logged for COc1cc(O)c(C(=O)c2ccccc2)c(OC)c1 ?
[out] inactive

[in] Any idea what this test logged for O=c1[nH]c2ccccc2n1C1CCN(CCCC(c2ccc(F)cc2)c2ccc(F)cc2)CC1 ?
[out] inactive

[in] Any idea what this test logged for COc1cc(O)c(C)c(O)c1 ?
[out] inactive

[in] Any idea what this test logged for COc1cc2ccc(=O)oc2c(OC)c1OC ?
[out] inactive

[in] Any idea what this test logged for CN1Cc2c(N)cccc2C(c2ccccc2)C1 (stereo not drawn) ?
[out] inactive

[in] Any idea what this test logged for COC(=O)C[C@H]1C(C)(C)[C@@H](OC(C)=O)[C@@H]2CC3C4CC(=O)O[C@@H](c5ccoc5)[C@]4(C)CCC3[C@@]1(C)C2=O (stereo partly drawn) ?
[out] inactive

[in] Any idea what this test logged for COc1c2occc2cc2ccc(=O)oc12 ?
[out] inactive

[in] Any idea what this test logged for CC(C)=CCOc1c2occc2cc2ccc(=O)oc12 ?
[out] active

[in] Any idea what this test logged for CC(C)=CCOc1cc2oc(=O)ccc2cc1O ?
[out] inactive

[in] Any idea what this test logged for Cn1c(=O)[nH]c(=O)c2[nH]cnc21 ?
[out] inactive

[in] Any idea what this test logged for COc1cc2ccc(=O)oc2cc1O ?
[out] inactive

[in] Any idea what this test logged for CSCCC(NC=O)C(=O)NC(CC(C)C)C(=O)NC(Cc1ccccc1)C(=O)O (stereo not drawn) ?
[out] inactive

[in] Any idea what this test logged for COC(=O)C1=CO[C@@H](O[C@@H]2O[C@H](CO)[C@@H](O)[C@H](O)[C@H]2O)[C@@H]2[C@@H](C)[C@@H](O)C[C@H]12 ?
[out] inactive

[in] Any idea what this test logged for CN(C)c1nc(N(C)C)nc(N(C)C)n1 ?
[out] inactive
